Numbers sourced from paper PMC3817407.

Molecular target: T1, ECF16_973
T1 chain: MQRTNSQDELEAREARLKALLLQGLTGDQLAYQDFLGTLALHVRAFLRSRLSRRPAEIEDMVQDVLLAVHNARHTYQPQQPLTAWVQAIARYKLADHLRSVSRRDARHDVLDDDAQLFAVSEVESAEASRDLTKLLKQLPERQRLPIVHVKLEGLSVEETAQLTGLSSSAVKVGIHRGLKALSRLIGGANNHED
property_measured: fold repression
Lab note: record just the number, no unit beside it.

Some solved entries appear below for comparison.
AS14_1324 (protein) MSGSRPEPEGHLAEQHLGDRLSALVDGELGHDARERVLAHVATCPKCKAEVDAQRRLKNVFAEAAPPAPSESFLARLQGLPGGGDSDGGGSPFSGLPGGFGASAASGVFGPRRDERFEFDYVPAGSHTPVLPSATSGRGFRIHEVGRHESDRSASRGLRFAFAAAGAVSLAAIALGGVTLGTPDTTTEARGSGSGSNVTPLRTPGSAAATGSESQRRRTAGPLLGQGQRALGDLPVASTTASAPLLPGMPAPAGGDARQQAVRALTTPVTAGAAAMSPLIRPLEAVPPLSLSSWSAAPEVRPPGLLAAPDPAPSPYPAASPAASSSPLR = 4.45
AS03_1244 (protein) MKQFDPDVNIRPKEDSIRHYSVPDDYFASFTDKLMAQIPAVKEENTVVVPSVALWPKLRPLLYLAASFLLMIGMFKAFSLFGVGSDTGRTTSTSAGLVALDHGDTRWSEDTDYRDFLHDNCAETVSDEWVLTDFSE = 1.79

// lookup fold repression for AS22_1147 (protein) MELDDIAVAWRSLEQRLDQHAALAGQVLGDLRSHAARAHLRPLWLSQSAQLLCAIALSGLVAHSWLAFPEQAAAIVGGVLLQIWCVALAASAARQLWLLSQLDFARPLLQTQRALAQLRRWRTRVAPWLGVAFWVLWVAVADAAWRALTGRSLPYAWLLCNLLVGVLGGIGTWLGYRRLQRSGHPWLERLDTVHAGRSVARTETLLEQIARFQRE
2.57

// lookup fold repression for AS27_1331 (protein) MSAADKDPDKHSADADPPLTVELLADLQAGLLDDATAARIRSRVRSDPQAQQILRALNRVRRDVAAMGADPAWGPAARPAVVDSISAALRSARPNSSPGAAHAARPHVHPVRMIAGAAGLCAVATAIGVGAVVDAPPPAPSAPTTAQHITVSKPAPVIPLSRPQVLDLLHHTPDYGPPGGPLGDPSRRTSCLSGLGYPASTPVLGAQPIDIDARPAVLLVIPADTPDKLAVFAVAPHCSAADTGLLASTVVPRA
5.57

// lookup fold repression for AS20_992 (protein) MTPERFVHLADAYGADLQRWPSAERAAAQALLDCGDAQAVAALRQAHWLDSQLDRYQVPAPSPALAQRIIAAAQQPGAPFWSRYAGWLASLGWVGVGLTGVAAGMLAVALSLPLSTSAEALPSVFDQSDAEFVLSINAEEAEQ
1.7
